# SYSTEM: Receptor tyrosine-protein kinase erbB-2 (Homo sapiens)
# ASSAY_OVERVIEW: Inhibition of human recombinant ERBB2 expressed in Sf9 cells using poly(E,Y)4:1 as substrate after 80 mins by scintillation counting
PARAMETER_MEASURED: IC50 (µM)
Numbers only, in µM.

Exam item: State the recorded IC50 for this entry: O=c1oc2c(O)c(O)cc3c(=O)oc4c(O)c(O)cc1c4c23 [ELLAGIC ACID]
Marked response: 3.54

---

# SYSTEM: Focal adhesion kinase 1 (Homo sapiens)
# ASSAY_OVERVIEW: Inhibition of human recombinant FAK expressed in Sf9 cells using poly(E,Y)4:1 as substrate after 80 mins by scintillation counting
PARAMETER_MEASURED: IC50 (µM)
One number for each entry, in µM.

Exam item: Can you share its IC50? I mean this compound: O=c1oc2c(O)c(O)cc3c(=O)oc4c(O)c(O)cc1c4c23
Marked response: 3.11

---

# SYSTEM: Insulin-like growth factor 1 receptor (Homo sapiens, UniProt P08069)
# Sequence (P08069 31-736 limits assumed): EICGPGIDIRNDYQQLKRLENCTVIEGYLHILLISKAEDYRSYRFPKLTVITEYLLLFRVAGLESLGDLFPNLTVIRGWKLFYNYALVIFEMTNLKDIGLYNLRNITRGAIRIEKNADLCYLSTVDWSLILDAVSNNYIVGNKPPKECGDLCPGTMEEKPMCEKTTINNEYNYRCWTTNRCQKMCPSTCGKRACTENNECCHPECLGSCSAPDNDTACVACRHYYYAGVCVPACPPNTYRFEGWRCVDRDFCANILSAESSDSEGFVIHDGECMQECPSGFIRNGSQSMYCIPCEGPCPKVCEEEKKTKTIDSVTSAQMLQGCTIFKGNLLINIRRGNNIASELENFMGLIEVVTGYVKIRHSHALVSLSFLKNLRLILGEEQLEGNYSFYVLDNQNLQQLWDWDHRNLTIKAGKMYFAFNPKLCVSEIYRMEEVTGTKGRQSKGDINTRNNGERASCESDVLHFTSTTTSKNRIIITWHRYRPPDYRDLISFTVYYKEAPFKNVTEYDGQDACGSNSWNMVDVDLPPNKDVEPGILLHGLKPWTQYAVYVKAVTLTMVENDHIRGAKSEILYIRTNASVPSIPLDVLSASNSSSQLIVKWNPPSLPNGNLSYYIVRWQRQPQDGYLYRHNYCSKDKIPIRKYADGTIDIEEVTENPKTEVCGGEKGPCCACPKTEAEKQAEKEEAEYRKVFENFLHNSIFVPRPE
# Sequence (P08069 741-1367 limits assumed): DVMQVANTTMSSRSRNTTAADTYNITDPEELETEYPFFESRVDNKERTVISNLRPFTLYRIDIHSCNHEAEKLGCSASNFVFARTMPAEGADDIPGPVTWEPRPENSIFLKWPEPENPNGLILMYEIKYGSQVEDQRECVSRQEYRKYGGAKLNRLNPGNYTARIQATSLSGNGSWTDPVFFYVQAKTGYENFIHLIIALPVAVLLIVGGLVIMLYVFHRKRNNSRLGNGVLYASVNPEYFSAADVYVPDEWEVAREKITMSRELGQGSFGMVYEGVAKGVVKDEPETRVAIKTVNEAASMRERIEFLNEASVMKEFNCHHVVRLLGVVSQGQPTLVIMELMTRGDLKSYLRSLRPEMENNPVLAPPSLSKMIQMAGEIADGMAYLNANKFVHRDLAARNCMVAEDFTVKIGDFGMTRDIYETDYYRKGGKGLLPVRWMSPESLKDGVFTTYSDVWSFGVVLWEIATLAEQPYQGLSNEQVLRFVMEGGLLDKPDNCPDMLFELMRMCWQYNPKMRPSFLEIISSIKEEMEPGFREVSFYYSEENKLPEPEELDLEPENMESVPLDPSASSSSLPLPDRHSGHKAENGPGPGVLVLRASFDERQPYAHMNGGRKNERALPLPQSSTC
# ASSAY_OVERVIEW: Inhibition of human recombinant IGF1R expressed in Sf9 cells using poly(E,Y)4:1 as substrate after 80 mins by scintillation counting
PARAMETER_MEASURED: IC50 (nM)
Numbers only, in nM.

Exam item: // lookup IC50 for O=c1oc2c(O)c(O)cc3c(=O)oc4c(O)c(O)cc1c4c23
Marked response: 250

---

# SYSTEM: RAC-alpha serine/threonine-protein kinase (Homo sapiens)
# ASSAY_OVERVIEW: Inhibition of human recombinant AKT1 expressed in Sf9 cells using GSK3(14-27) as substrate after 80 mins by scintillation counting
PARAMETER_MEASURED: pIC50
Numbers only, as −log10 of the molar value.

Exam item: Form entry - test system: RAC-alpha serine/threonine-protein kinase (Homo sapiens); read-out: pIC50; compound: O=c1oc2c(O)c(O)cc3c(=O)oc4c(O)c(O)cc1c4c23
Marked response: 5.48

---

# SYSTEM: Angiopoietin-1 receptor (Homo sapiens, UniProt Q02763)
# ASSAY_OVERVIEW: Inhibition of human recombinant TIE2 expressed in Sf9 cells using poly(E,Y)4:1 as substrate after 80 mins by scintillation counting
PARAMETER_MEASURED: IC50 (µM)
Numbers only, in µM.

Exam item: Reported IC50, compound O=c1oc2c(O)c(O)cc3c(=O)oc4c(O)c(O)cc1c4c23 : ____
Marked response: 0.26

---

# SYSTEM: UniProt:O60285
# ASSAY_OVERVIEW: Inhibition of human recombinant ARK5 expressed in Sf9 cells assessed as autophosphorylation after 80 mins by scintillation counting
PARAMETER_MEASURED: pIC50
Answers are plain numbers, as −log10 of the molar value.

Exam item: # pIC50 lookup, item O=c1oc2c(O)c(O)cc3c(=O)oc4c(O)c(O)cc1c4c23 [ELLAGIC ACID]
Marked response: 6.29

---

# SYSTEM: Vascular endothelial growth factor receptor 3 (Homo sapiens, UniProt P35916)
# ASSAY_OVERVIEW: Inhibition of human recombinant VEGF-R3 expressed in Sf9 cells using poly(E,Y)4:1 as substrate after 80 mins by scintillation counting
PARAMETER_MEASURED: IC50 (nM)
One number for each entry, in nM.

Exam item: # get_value(readout= IC50, system= Vascular endothelial growth factor receptor 3 (Homo sapiens, UniProt P35916)) for O=c1oc2c(O)c(O)cc3c(=O)oc4c(O)c(O)cc1c4c23
Marked response: 1540

---

# SYSTEM: UniProt:P06213
# Sequence (P06213 28-758 limits assumed): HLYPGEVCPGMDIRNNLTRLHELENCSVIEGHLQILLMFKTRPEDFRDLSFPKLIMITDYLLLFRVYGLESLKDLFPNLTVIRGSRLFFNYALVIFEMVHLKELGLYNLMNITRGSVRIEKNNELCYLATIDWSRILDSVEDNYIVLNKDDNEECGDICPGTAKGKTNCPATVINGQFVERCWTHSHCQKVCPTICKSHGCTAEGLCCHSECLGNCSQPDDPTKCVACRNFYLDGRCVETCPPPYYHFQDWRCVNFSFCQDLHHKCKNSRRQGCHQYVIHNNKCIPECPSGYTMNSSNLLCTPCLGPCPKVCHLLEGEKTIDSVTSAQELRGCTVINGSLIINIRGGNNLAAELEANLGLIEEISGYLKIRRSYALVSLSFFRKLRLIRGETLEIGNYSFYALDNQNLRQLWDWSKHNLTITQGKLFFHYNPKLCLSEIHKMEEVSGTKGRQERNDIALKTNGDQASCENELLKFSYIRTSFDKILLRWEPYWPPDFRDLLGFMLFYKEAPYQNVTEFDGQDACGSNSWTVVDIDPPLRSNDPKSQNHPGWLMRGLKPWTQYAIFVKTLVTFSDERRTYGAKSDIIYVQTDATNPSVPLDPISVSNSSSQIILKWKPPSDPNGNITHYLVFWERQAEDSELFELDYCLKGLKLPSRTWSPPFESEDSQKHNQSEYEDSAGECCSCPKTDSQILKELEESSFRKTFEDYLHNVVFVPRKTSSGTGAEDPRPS
# Sequence (P06213 763-1382 limits assumed): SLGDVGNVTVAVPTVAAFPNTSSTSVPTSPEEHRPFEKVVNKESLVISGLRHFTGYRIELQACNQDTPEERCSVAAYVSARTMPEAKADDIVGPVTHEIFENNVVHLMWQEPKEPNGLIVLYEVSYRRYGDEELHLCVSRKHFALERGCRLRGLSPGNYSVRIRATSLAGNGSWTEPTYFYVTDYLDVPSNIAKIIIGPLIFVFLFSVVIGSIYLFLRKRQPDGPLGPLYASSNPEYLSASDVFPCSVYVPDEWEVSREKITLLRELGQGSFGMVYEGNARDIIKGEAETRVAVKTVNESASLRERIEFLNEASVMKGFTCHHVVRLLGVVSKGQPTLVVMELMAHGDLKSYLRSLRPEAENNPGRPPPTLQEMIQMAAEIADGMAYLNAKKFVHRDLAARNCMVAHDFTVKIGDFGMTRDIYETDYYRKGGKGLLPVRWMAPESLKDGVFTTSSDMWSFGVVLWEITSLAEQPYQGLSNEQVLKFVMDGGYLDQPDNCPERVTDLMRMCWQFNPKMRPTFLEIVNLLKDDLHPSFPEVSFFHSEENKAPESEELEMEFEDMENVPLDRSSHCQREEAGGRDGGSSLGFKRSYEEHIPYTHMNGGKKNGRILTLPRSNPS
# ASSAY_OVERVIEW: Inhibition of human recombinant INS-R expressed in Sf9 cells using poly(A,E,K,Y)6:2:5:1 as substrate after 80 mins by scintillation counting
PARAMETER_MEASURED: IC50 (nM)
Numbers only, in nM.

Exam item: I would be grateful if you could share the reported IC50 for O=c1oc2c(O)c(O)cc3c(=O)oc4c(O)c(O)cc1c4c23 .
Marked response: 340

---

# ASSAY_OVERVIEW: Inhibition of casein kinase-2
PARAMETER_MEASURED: IC50
Units required after the number.

Exam item: GET /values?readout=IC50&item= OC[C@H]1O[C@@H](n2cnc3cc(Cl)c(Cl)cc32)[C@H](O)[C@@H]1O
Marked response: 15 µM

---

# SYSTEM: Serine/threonine-protein kinase PLK1 (Homo sapiens)
# Sequence (P53350 whole entry): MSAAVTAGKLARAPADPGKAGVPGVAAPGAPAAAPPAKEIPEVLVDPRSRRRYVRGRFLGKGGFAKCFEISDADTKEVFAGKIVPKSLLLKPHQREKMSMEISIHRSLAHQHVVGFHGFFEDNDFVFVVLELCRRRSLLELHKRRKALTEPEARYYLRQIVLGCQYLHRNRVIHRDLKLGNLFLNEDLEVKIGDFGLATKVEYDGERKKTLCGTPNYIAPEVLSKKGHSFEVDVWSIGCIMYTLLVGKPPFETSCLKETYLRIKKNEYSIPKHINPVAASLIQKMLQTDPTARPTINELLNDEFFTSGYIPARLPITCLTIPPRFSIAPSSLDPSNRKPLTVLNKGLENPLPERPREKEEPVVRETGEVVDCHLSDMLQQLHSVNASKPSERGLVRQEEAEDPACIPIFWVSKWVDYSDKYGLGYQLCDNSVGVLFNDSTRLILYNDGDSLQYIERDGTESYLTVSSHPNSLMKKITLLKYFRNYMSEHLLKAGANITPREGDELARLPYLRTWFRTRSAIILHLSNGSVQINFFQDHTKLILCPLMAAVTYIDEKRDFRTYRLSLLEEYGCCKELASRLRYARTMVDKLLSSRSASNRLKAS
# ASSAY_OVERVIEW: Inhibition of human recombinant PLK1 expressed in Sf9 cells using casein as substrate after 80 mins by scintillation counting
PARAMETER_MEASURED: IC50 (µM)
Numbers only, in µM.

Exam item: Quick one: IC50 of O=c1oc2c(O)c(O)cc3c(=O)oc4c(O)c(O)cc1c4c23 ?
Marked response: 3.34

---

# SYSTEM: Casein kinase II alpha/beta (Homo sapiens) (UniProt P67870+P68400)
# Sequence (P67870 2-215 limits assumed): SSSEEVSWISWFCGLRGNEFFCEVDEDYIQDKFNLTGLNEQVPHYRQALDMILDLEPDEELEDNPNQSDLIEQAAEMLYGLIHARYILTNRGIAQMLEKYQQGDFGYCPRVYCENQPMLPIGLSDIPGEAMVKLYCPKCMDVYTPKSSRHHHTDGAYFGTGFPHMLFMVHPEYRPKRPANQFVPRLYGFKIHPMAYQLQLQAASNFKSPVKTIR
# Sequence (P68400 whole entry partner): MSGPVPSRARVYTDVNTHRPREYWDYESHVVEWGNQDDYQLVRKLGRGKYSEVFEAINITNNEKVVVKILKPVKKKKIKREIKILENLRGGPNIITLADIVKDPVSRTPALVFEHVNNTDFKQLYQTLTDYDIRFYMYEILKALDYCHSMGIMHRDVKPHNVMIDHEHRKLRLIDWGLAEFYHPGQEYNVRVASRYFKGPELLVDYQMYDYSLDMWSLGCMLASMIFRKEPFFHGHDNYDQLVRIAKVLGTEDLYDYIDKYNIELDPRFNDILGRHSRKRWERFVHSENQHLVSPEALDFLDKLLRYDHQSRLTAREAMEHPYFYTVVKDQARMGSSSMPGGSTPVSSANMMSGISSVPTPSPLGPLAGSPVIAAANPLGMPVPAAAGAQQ
# ASSAY_OVERVIEW: Inhibition of human CSNK2A1/2B expressed in Escherichia coli BL21(DE3) using RRRDDDSDDD as substrate at 10 uM after 15 mins by scintillation counting
inhibition of 30% or higher: Y. Under 30%: N.

Consider the following illustrative entries.
Exam item: Determine whether measured inhibition meets or exceeds 30% for COc1ccc(CCn2c3c(c4c(O)cccc42)C(=O)c2ccccc2-3)cc1OC
Marked response: Y

Exam item: Is it the case that O=C1c2ccccc2-c2c1c1c(O)cccc1n2Cc1ccccc1 has inhibition reaching or exceeding 30%?
Marked response: N

Exam item: API: above_or_equal(metric=inhibition, cutoff=30%) for item O=C1CCCc2c1c1c(n2CCCc2ccccc2)-c2ccccc2C1=O
Marked response: N

Further cases:
Exam item: State whether the measured inhibition reaches 30%, counting equality as reaching it, for O=C1CCCc2[nH]c3c(c21)C(=O)c1ccccc1-3
Marked response: N

Exam item: Tell me whether inhibition is at least 30% here: CC(c1ccccc1)n1c2c(c3c1-c1ccccc1C3=O)C(=O)CCC2 (configuration not stated)
Marked response: Y

Exam item: For this molecule, is measured inhibition 30% or higher? COC(=O)C1C(=O)c2c([nH]c3c2C(=O)c2ccccc2-3)CC1C (configuration not stated)
Marked response: N

Exam item: Kindly determine if inhibition recorded for COc1ccc(CCn2c3c(c4c2-c2ccccc2C4=O)C(=O)CCC3)cc1OC is above or exactly 30%.
Marked response: Y

---

# SYSTEM: Serine/threonine-protein kinase B-raf (Homo sapiens)
# ASSAY_OVERVIEW: Inhibition of human recombinant B-RAF expressed in Sf9 cells using MEK1 KM as substrate after 80 mins by scintillation counting
PARAMETER_MEASURED: IC50 (nM)
Numbers only, in nM.

Exam item: What does the record list as IC50 for O=c1oc2c(O)c(O)cc3c(=O)oc4c(O)c(O)cc1c4c23 [ELLAGIC ACID] ?
Marked response: 1760

---

# SYSTEM: Cyclin-dependent kinase 4/cyclin D1 (Homo sapiens)
# Sequence (P11802 whole entry): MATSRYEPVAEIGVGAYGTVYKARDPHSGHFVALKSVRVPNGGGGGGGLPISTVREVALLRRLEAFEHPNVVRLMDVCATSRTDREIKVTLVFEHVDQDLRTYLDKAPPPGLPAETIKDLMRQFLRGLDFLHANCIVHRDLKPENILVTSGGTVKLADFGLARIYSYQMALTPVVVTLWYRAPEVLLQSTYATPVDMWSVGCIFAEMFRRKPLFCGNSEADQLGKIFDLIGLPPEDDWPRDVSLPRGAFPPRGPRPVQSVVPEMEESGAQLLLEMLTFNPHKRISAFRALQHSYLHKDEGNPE
# Sequence (P24385 whole entry, further chain): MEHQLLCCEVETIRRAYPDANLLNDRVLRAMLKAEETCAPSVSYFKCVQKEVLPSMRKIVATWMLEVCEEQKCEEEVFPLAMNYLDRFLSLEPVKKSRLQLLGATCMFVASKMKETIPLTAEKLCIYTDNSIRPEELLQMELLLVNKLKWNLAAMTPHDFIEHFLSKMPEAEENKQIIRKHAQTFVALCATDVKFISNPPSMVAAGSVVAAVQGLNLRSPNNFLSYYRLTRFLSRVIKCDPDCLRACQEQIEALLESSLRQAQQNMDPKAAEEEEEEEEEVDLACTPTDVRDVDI
# ASSAY_OVERVIEW: Inhibition of human recombinant CDK4/CyclinD1 expressed in Sf9 cells using RB-CTF as substrate after 80 mins by scintillation counting
PARAMETER_MEASURED: pIC50
One number for each entry, as −log10 of the molar value.

Exam item: Can you share its pIC50? I mean this compound: O=c1oc2c(O)c(O)cc3c(=O)oc4c(O)c(O)cc1c4c23
Marked response: 5.96

---

# SYSTEM: Serine/threonine-protein kinase PLK4 (Homo sapiens, UniProt O00444)
# Sequence (O00444 whole entry): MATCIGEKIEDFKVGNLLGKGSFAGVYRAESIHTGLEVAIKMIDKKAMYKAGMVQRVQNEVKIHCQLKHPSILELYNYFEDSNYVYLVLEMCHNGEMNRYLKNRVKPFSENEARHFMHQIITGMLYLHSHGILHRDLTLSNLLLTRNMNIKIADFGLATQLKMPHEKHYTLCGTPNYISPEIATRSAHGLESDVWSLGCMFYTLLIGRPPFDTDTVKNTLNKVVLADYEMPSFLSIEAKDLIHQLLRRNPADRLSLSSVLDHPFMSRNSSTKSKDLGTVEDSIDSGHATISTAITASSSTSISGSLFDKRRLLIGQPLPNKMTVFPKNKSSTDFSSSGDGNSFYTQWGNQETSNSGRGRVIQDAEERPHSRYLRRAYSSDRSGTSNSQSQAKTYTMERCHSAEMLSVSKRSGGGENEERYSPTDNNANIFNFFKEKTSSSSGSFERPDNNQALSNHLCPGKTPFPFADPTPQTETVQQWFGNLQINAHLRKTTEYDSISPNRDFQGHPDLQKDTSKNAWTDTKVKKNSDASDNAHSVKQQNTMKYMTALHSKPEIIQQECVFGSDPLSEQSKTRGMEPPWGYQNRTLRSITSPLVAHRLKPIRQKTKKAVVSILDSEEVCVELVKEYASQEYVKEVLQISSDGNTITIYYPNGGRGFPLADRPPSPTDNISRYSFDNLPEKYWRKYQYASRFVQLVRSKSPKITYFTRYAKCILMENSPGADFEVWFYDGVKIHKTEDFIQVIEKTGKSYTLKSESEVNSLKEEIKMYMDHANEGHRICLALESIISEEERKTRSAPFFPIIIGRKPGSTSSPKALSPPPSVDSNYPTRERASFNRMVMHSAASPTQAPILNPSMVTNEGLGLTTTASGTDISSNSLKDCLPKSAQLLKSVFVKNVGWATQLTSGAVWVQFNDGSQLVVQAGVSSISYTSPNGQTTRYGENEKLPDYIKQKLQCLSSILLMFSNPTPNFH
# ASSAY_OVERVIEW: Inhibition of human recombinant SAK expressed in Sf9 cells using p38alpha-KRKR as substrate after 80 mins by scintillation counting
PARAMETER_MEASURED: IC50 (µM)
Numbers only, in µM.

Exam item: GET /values?readout=IC50&system=Serine/threonine-protein kinase PLK4 (Homo sapiens, UniProt O00444)&item= O=c1oc2c(O)c(O)cc3c(=O)oc4c(O)c(O)cc1c4c23
Marked response: 2.97

src = ChEMBL document CHEMBL1955824
